# tested_on: T1, human ceruloplasmin (human, UniProt P00450 20-1065)
# T1 construct: also called CP; purified CP
# T1 sequence: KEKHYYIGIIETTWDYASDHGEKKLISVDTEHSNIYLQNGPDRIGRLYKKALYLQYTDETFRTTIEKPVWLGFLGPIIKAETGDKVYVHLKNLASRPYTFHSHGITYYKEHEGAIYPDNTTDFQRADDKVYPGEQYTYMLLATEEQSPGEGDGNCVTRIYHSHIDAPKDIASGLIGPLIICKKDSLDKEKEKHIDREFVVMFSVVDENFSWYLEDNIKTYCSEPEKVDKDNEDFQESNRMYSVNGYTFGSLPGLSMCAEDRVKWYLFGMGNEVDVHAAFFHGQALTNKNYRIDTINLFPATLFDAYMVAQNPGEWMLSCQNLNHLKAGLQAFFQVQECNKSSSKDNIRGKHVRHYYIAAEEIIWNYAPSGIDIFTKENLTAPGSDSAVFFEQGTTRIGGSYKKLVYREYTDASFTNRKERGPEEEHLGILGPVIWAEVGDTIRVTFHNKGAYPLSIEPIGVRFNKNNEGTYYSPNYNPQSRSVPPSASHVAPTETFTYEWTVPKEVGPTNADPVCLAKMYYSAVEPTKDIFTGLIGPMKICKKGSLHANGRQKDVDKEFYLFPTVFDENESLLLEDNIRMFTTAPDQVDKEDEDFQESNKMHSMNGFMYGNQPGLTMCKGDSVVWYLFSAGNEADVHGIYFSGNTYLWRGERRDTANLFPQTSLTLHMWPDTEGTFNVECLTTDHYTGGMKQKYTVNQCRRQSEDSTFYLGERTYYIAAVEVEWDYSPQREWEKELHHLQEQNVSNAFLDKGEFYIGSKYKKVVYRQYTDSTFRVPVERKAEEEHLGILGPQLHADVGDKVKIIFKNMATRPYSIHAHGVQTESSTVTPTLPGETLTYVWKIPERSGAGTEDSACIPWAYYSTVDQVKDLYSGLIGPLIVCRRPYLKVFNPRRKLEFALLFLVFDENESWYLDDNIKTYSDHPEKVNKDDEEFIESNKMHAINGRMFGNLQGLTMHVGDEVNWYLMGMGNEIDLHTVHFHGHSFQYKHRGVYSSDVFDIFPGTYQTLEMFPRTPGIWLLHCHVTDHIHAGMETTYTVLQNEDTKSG
# assay_summary: competition ELISA on coated CP, biotinylated probe; competitor: CP-pAb
probe binding, % of diluent control by entry:
A number alone suffices; assume %.

Enquiry: # probe binding, % of diluent control lookup, item anti-CP mAb G (antibody, V domains shown, Recombinant full-length rabbit IgG from HEK-293; also called mAb3) VH: QSLEESGGRLVTPGTLLTLTCTVSGFSLSSNAMSWVRQAPGEGLEWIGTISSRGSTYYANWAKGRFTISKTSTTVDLKITSPTTEDTATYFCARSSLAGYEPYYFKLWGQGTLVTVSS VL: DVVMTQTASPVSAAVGGTVTIKCQASESISSYLAWYQQKPGQPPKLLIYGASDLASGVPSRFKGSGSGTEFTLTISDLECADAATYYCQSYYGLSRNGYGNVFGGGTEVVVKG
Return: 6

Enquiry: # probe binding, % of diluent control lookup, item anti-CP mAb B (antibody, V domains shown, Recombinant full-length rabbit IgG from HEK-293; tested as conditioned medium, Protein A-purified and biotinylated) VH: QQQLEESGGGLVKPGGTLTLTCKASGIDFSSYYYMCWVRQAPGKGLEWIACIYVIDDTIYCANWAKGRFTISKTSSTTVTLQMTSLTAADTATYFCARDGSSGIRDYFDLWGPGTLVTVSS VL: AYDMTQTPASVEVAVGGTVTIKCQASESVSTWLAWYQQKPGQPPKLLIYKASDLASGVPSRFKGSGSGTEFTLTISGVECADAATYYCQQGYTYNNVENVFGGGTEVVVKG
Return: 2

Continue with the next binder.
Enquiry: # probe binding, % of diluent control lookup, item anti-CP mAb H (antibody, V domains shown, Recombinant full-length rabbit IgG from HEK-293; tested as conditioned medium, Protein A-purified and biotinylated) VH: QSVEESGGRLVTPGTPLTLTCTVSGFSLSTYAMGWVRQAPGKGLEYIGIIYGGSGTFYASWAKGRFTISKTSTTVDLKITSPTTEDTATYFCARDGDDSYFDYFNLWGQGTLVTVSS VL: AAVLTQTPASVSAAVGGTVSISCQSNENIGSNLAWYQQKPGQPPKLLIYGASTLTSGVPSRFKGSGSGTAFTLTISGVQCDDAATYYCLGGYLSTSDTTFGGGTAVVVKG
Return: 2
